# Tested on: Hap1 (UniProt P0CE41)
# Sequence (P0CE41 whole entry): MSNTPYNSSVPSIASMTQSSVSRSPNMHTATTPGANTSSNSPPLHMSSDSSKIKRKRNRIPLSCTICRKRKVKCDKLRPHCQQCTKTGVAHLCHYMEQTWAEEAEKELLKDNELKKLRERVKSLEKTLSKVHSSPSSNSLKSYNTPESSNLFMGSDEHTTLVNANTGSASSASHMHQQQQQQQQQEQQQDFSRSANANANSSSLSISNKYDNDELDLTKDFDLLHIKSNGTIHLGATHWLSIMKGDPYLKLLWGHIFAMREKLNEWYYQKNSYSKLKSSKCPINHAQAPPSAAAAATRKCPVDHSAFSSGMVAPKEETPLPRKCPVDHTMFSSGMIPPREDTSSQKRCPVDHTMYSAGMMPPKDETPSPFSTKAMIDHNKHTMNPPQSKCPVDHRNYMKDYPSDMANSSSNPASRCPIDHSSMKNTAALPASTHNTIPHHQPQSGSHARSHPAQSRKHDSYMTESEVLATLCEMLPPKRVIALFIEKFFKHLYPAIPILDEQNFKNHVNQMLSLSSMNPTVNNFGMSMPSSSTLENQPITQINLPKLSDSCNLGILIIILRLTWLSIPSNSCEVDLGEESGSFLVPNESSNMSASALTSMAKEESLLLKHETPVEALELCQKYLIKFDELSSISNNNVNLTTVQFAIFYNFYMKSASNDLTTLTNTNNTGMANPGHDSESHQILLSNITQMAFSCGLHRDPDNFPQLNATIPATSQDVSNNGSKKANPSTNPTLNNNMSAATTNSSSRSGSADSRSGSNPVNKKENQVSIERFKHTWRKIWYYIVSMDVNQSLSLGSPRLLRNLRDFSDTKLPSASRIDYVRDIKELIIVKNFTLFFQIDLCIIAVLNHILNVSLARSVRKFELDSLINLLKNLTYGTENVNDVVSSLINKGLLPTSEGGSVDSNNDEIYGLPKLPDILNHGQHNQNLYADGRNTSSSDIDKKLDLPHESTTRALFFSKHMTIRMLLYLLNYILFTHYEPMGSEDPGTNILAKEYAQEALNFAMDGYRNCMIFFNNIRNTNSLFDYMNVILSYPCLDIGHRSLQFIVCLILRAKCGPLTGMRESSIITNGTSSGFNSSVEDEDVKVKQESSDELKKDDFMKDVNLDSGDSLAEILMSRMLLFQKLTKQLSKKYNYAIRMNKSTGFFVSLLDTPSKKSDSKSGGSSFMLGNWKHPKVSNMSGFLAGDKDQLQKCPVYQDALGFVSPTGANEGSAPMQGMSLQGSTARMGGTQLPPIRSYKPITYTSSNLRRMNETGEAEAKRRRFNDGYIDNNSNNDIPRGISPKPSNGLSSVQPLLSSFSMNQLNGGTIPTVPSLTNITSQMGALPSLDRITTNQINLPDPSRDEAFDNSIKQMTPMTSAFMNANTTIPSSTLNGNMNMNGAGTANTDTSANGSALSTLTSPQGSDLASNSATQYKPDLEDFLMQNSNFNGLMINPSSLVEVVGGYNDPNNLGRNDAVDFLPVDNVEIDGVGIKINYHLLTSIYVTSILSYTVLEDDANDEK
# Measurement notes: PBM E-score (8-mer binding enrichment) (E-score (-0.5 to 0.5)); higher = stronger / more preferred TF binding
# Recorded conditions: protein concentration: 200 nM; construct: GST-DNA-binding domain
In all, about 33,000 sequences were measured (“E-score (-0.5 to 0.5)”: median about -0.053, highest 2% from about 0.37 on). The entries come from a sample that favours the highest values as a whole.
# Lookup of reported PBM E-score keyed by entry
Reply briefly: the number, and no unit.

See these solved cases before continuing.
[
  {
    "Sequence": "CGGTTTCA",
    "Tested on": "Hap1 (UniProt P0CE41)",
    "PBM E-score": 0.263
  },
  {
    "Sequence": "CCCGAAAG",
    "Tested on": "Hap1 (UniProt P0CE41)",
    "PBM E-score": 0.298
  },
  {
    "Sequence": "CCGGGCCC",
    "Tested on": "Hap1 (UniProt P0CE41)",
    "PBM E-score": 0.369
  },
  {
    "Sequence": "AATCCTAC",
    "Tested on": "Hap1 (UniProt P0CE41)",
    "PBM E-score": -0.124
  }
]

For GCGGGCGA the sequence record lists PBM E-score as 0.296

For CAGATATC the sequence record lists PBM E-score as 0.199

For CCAGTGCG the sequence record lists PBM E-score as 0.0478

For CCGATATC the sequence record lists PBM E-score as 0.458

For ACGATATC the sequence record lists PBM E-score as 0.0796

For AACGGACA the sequence record lists PBM E-score as 0.369

For CTATAGGC the sequence record lists PBM E-score as -0.0955

For CCGATATA the sequence record lists PBM E-score as 0.44

For ACGATATA the sequence record lists PBM E-score as -0.0495

For GCGGGCCC the sequence record lists PBM E-score as 0.216

For AATCCGGG the sequence record lists PBM E-score as 0.409

For GGTAGGAC the sequence record lists PBM E-score as 0.0611

* * *

# Tested on: Hap1 (UniProt P0CE41)
# Measurement notes: PBM E-score (8-mer binding enrichment) (E-score (-0.5 to 0.5)); higher = stronger / more preferred TF binding
# Recorded conditions: protein concentration: 200 nM; construct: GST-DNA-binding domain
In all, about 33,000 sequences were measured (“E-score (-0.5 to 0.5)”: median about -0.053, highest 2% from about 0.37 on). The sample holds the highest values, similar sequences and a random draw of the others, so the mix is not that of the screen.
# Lookup of reported PBM E-score keyed by entry
Reply briefly: the number, and no unit.

See these solved cases before continuing.
[
  {
    "Sequence": "CGCCGAAG",
    "PBM E-score": 0.359
  },
  {
    "Sequence": "TGGTTAAA",
    "PBM E-score": -0.0634
  },
  {
    "Sequence": "GGGGACCC",
    "PBM E-score": -0.043
  },
  {
    "Sequence": "GCTTCATA",
    "PBM E-score": -0.0731
  },
  {
    "Sequence": "CTCCGACA",
    "PBM E-score": 0.291
  }
]

Tested system Hap1 (UniProt P0CE41); PBM E-score recorded for AAGAAAGC was -0.113

Tested system Hap1 (UniProt P0CE41); PBM E-score recorded for CTCCGAAA was 0.41

Tested system Hap1 (UniProt P0CE41); PBM E-score recorded for ATAACCAA was -0.182

Tested system Hap1 (UniProt P0CE41); PBM E-score recorded for ACCCGAAT was 0.314

Tested system Hap1 (UniProt P0CE41); PBM E-score recorded for CCACTGGG was -0.145

Tested system Hap1 (UniProt P0CE41); PBM E-score recorded for CGCCGAAA was 0.359

* * *

# Tested on: Hap1 (UniProt P0CE41)
# Measurement notes: PBM E-score (8-mer binding enrichment) (E-score (-0.5 to 0.5)); higher = stronger / more preferred TF binding
# Recorded conditions: protein concentration: 200 nM; construct: GST-DNA-binding domain
Whole data set: some 33,000 sequences, median “E-score (-0.5 to 0.5)” near -0.053, cut for the highest 2% near 0.37. The full list was thinned out, with the highest values kept by preference.
# Lookup of reported PBM E-score keyed by entry
Reply briefly: the number, and no unit.

See these solved cases before continuing.
[
  {
    "Sequence": "AGGCCGAG",
    "Tested on": "Hap1 (UniProt P0CE41)",
    "PBM E-score": 0.303
  },
  {
    "Sequence": "TGGTTTAA",
    "Tested on": "Hap1 (UniProt P0CE41)",
    "PBM E-score": -0.161
  },
  {
    "Sequence": "GACACGTA",
    "Tested on": "Hap1 (UniProt P0CE41)",
    "PBM E-score": -0.194
  },
  {
    "Sequence": "GACCCAAA",
    "Tested on": "Hap1 (UniProt P0CE41)",
    "PBM E-score": -0.00261
  },
  {
    "Sequence": "GGGTTTAA",
    "Tested on": "Hap1 (UniProt P0CE41)",
    "PBM E-score": 0.387
  },
  {
    "Sequence": "ACTGATAG",
    "Tested on": "Hap1 (UniProt P0CE41)",
    "PBM E-score": -0.267
  },
  {
    "Sequence": "ATTTCACA",
    "Tested on": "Hap1 (UniProt P0CE41)",
    "PBM E-score": -0.131
  },
  {
    "Sequence": "CGGCCGAG",
    "Tested on": "Hap1 (UniProt P0CE41)",
    "PBM E-score": 0.449
  }
]

For ATACGTTA the sequence record lists PBM E-score as -0.106

For GGGTTTTA the sequence record lists PBM E-score as 0.288

For GACCAACA the sequence record lists PBM E-score as 0.0331

For CGGCCGAC the sequence record lists PBM E-score as 0.415

* * *

# Tested on: Hap1 (UniProt P0CE41)
# Measurement notes: PBM E-score (8-mer binding enrichment) (E-score (-0.5 to 0.5)); higher = stronger / more preferred TF binding
# Recorded conditions: protein concentration: 200 nM; construct: GST-DNA-binding domain
In all, about 33,000 sequences were measured (“E-score (-0.5 to 0.5)”: median about -0.053, highest 2% from about 0.37 on). Many of the other results were omitted from the sample, so the highest values are more common in it than they were.
Recorded metric: PBM E-score
Reply briefly: the number, and no unit.

For AGGGAATG the sequence record lists PBM E-score as -0.197

For ACTCGGCC the sequence record lists PBM E-score as 0.361

For AGCGGTCG the sequence record lists PBM E-score as 0.123

For CGTCGGAG the sequence record lists PBM E-score as 0.313

For GGGCACCA the sequence record lists PBM E-score as -0.0557

For CCTCGGAG the sequence record lists PBM E-score as 0.394

For AACTGAAT the sequence record lists PBM E-score as -0.215

For ATTCCGAG the sequence record lists PBM E-score as 0.397

For CAAAGAGC the sequence record lists PBM E-score as -0.176

For ATTCCGAC the sequence record lists PBM E-score as 0.307

* * *

# Tested on: Hap1 (UniProt P0CE41)
# Measurement notes: PBM E-score (8-mer binding enrichment) (E-score (-0.5 to 0.5)); higher = stronger / more preferred TF binding
# Recorded conditions: protein concentration: 200 nM; construct: GST-DNA-binding domain
In all, about 33,000 sequences were measured (“E-score (-0.5 to 0.5)”: median about -0.053, highest 2% from about 0.37 on). The entries come from a sample that favours the highest values as a whole.
Recorded metric: PBM E-score
Reply briefly: the number, and no unit.

See these solved cases before continuing.
[
  {
    "Sequence": "GGTCCGTA",
    "PBM E-score": 0.329
  },
  {
    "Sequence": "CGTCCAAG",
    "PBM E-score": -0.111
  },
  {
    "Sequence": "CTTGGAGA",
    "PBM E-score": -0.0528
  },
  {
    "Sequence": "ATCGGAGA",
    "PBM E-score": 0.415
  }
]

Attention now turns to another entry.
Tested system Hap1 (UniProt P0CE41); PBM E-score recorded for ATAACGCA was 0.0362

src = the supplement of paper PMC3334620
